These entries and their values trace back to ChEMBL document CHEMBL5335870.

experiment_summary: Oral bioavailability in Sprague-Dawley rat after 24 hrs by LC/MS/MS method
Type: ADME, organism-based
condition_set: in vivo
T means recorded bioavailability is 90% or above; F means it is below 90%.

smiles_string: COCCCOc1cc2c(cc1Cl)-c1cc(=O)c(C(=O)O)cn1N(C(C)(C)C)C2
category_label: T
//
smiles_string: CC(C)(C)N1Cc2cc(C#Cc3cnc(N4CC5CCC(C4)N5C4COC4)nc3)c(Cl)cc2-c2cc(=O)c(C(=O)O)cn21
category_label: F
//
smiles_string: COCCCOc1cc2c(cc1OC(F)F)-c1cc(=O)c(C(=O)O)cn1N1[C@@H]2CCC1(C)C
category_label: F
//
smiles_string: COCCCOc1cc2c(cc1OC(C)C)-c1cc(=O)c(C(=O)O)cn1N1[C@@H]2CCC1(C)C
category_label: T
//
smiles_string: COCCCOc1cc2c(cc1OC)-c1cc(=O)c(C(=O)O)cn1N1[C@@H]2CCC1(C)C
category_label: F
//
smiles_string: CC(C)(C)N1Cc2cc(OCC3CC(F)(F)C3)c(Cl)cc2-c2cc(=O)c(C(=O)O)cn21
category_label: F

Hi, just wondering whether COCCCOc1cc2c(cc1OCC(F)F)-c1cc(=O)c(C(=O)O)cn1N1[C@@H]2CCC1(C)C shows bioavailability of 90% or higher.
F

# bool: bioavailability of COCCCOc1cc2c(cc1Cl)-c1cc(=O)c(C(=O)O)cn1N1[C@@H]2CCC1(C)C >= 90%
F

Could you tell me if the measured bioavailability of COCCCOc1cc2c(cc1OC(F)(F)F)-c1cc(=O)c(C(=O)O)cn1N1[C@@H]2CCC1(C)C reaches 90% or more?
F

Record CCOc1cc2c(cc1OCCCOC)[C@H]1CCC(C)(C)N1n1cc(C(=O)O)c(=O)cc1-2 ; criterion: bioavailability no lower than 90%. Met?
T

----------
experiment_summary: Volume of distribution at steady state in Beagle dog at 0.5 mg/kg, iv
Type: ADME, organism-based, Canis lupus familiaris
condition_set: in vivo, read-out: Vdss
measurement_type: Vd (L/kg)
One number for each entry, in L/kg.

What does the data say about its Vd? Entry: COCCCOc1cc2c(cc1COC)-c1cc(=O)c(C(=O)O)cn1N1[C@@H]2CCC1(C)C
0.85

----------
experiment_summary: In vivo clearance in rat
Assay type: ADME, organism-based
measurement_type: clearance

smiles_string: COCCCOc1cc2c(cc1Cl)-c1cc(=O)c(C(=O)O)cn1[C@H](C(C)(C)C)C2
clearance: 0.3 L/h/kg

smiles_string: COCCCOc1cc2c(cc1OC)-c1cc(=O)c(C(=O)O)cn1[C@H](C(C)C)C2
clearance: 1.1 L/h/kg

// next entry
clearance lookup needed for COCCCOc1cc2c(cc1Cl)-c1cc(=O)c(C(=O)O)cn1N(C(C)(C)C)C2 , thanks.
0.18 L/h/kg

----------
experiment_summary: In vivo clearance in dog
Format: ADME, organism-based, Canis lupus familiaris
Exercise: state measured clearance for each of the molecules provided.

smiles_string: COCCCOc1cc2c(cc1Cl)-c1cc(=O)c(C(=O)O)cn1[C@H](C(C)(C)C)C2
measurement_type: clearance
val: 6 mL/min/kg
--
smiles_string: COCCCOc1cc2c(cc1Cl)-c1cc(=O)c(C(=O)O)cn1N(C(C)(C)C)C2
measurement_type: clearance
val: 2.17 mL/min/kg

Item COCCCOc1cc2c(cc1OC)-c1cc(=O)c(C(=O)O)cn1[C@H](C(C)C)C2 has what recorded clearance?
11.2 mL/min/kg
